Values from ChEMBL document CHEMBL6078615

# Tested on: SH-SY5Y
# method: Inhibition of H2O2-induced oxidative stress in human SH-SY5Y cells assessed as residual ROS level at 25 uM incubated for 3 hrs relative to control
# Format: functional
reportedEndpoint: Activity
# output: numeric value plus its unit

INPUT: Please give the measured Activity for this compound: COc1cc([C@H](OC)[C@@H](CO)Oc2ccc([C@@H](O)[C@H](CO)Oc3ccc(CCCO)cc3OC)cc2OC)ccc1O
OUTPUT: 74.22%

INPUT: Please give the measured Activity for this compound: COc1cc([C@@H](O)[C@@H](CO)Oc2ccc([C@H](O)[C@H](CO)Oc3c(OC)cc([C@H](O)[C@H](O)CO)cc3OC)cc2OC)ccc1O
OUTPUT: 74.78%

INPUT: Please give the measured Activity for this compound: COc1cc([C@H](O)[C@@H](CO)Oc2ccc([C@@H](O)[C@@H](CO)Oc3c(OC)cc(CCCO)cc3OC)cc2OC)ccc1O
OUTPUT: 77.58%

INPUT: Please give the measured Activity for this compound: CCO[C@@H](c1ccc(O)c(OC)c1)[C@H](CO)Oc1ccc([C@H](O)[C@@H](CO)Oc2ccc(CCCO)cc2OC)cc1OC
OUTPUT: 71.1%

// moving on: another record for Activity
INPUT: Please give the measured Activity for this compound: COc1cc([C@@H](O)[C@@H](CO)Oc2ccc([C@H](O)[C@H](CO)Oc3c(OC)cc([C@H](O)[C@@H](O)CO)cc3OC)cc2OC)ccc1O
OUTPUT: 75.8%
